# Test system: Zea mays (ZEAMX)
# assay: Pre-emergence herbicidal test
# Type: in vivo
# conditionInfo: 1000 g/ha, evaluated after 13 days
measure: percentage damage caused to the plant, five-point scale, ZEAMX

Use the examples below as a reference point.
CC(C)(C)CCOC(=O)c1nn(-c2ccc(OC(F)(F)F)cc2)c2cccc(S(C)(=O)=O)c2c1=O: 1 (1=10-20%)
CCOC(=O)c1nn(-c2ccc(OC(F)(F)F)cc2)c2cccc([S+]([O-])CC)c2c1=O (stereo not shown): 0 (0=0%)
CCOC(=O)c1nn(-c2ccc(OC(F)(F)F)cc2)c2ccc(OC)c(S(C)(=O)=O)c2c1=O: 0 (0=0%)

Lab note: next compound to report on.
Prompt: Item: `C#CCOC(=O)c1nn(-c2ccc(OC(F)(F)F)cc2)c2cccc(S(C)(=O)=O)c2c1=O` Test system: Zea mays (ZEAMX) Read-out: percentage damage caused to the plant, five-point scale, ZEAMX Value: ?
Completion: 1 (1=10-20%)

* * *

# Tested on: Zea mays (ZEAMX)
# assay: Pre-emergence herbicidal test
# Assay type: in vivo
# conditionInfo: 1000 g/ha, evaluated after 13 days
measure: percentage damage caused to the plant, five-point scale, ZEAMX

Solved cases (7 shown):
CCOC(=O)c1nn(-c2ccc(Cl)cc2F)c2cccc(S(C)(=O)=O)c2c1=O: 0 (0=0%)
Cc1cc(S(C)(=O)=O)c2c(=O)c(C(=O)O)nn(-c3ccc(OC(F)(F)F)cc3)c2c1: 1 (1=10-20%)
CS(=O)(=O)c1cccc2c1c(=O)c(C(=O)OCC1CC1)nn2-c1ccc(OC(F)(F)F)cc1: 0 (0=0%)
C=CC(C)OC(=O)c1nn(-c2ccc(OC(F)(F)F)cc2)c2cccc(S(C)(=O)=O)c2c1=O (centres unmarked): 0 (0=0%)
CCOC(=O)c1nn(-c2ccc(OC(F)(F)F)cc2)c2cc(OC)cc(SC)c2c1=O: 0 (0=0%)
O=C(O)c1nn(-c2ccc(OC(F)(F)F)cc2)c2cccc(SC3CC3)c2c1=O: 0 (0=0%)
CCOC(=O)c1nn(-c2ccc(OC(F)(F)F)cc2)c2cccc(S(=O)(=O)C3CC3)c2c1=O: 0 (0=0%)

The record that follows has no percentage damage caused to the plant, five-point scale, ZEAMX shown yet.
Prompt: Which percentage damage caused to the plant, five-point scale, ZEAMX value belongs to `CCS(=O)(=O)c1cccc2c1c(=O)c(C(=O)O)nn2-c1ccc(OC(F)(F)F)cc1` ?
Completion: 1 (1=10-20%)

* * *

# Tested on: Abutilon theophrasti (ABUTH)
# assay: Pre-emergence herbicidal test
# Format: in vivo
# conditionInfo: 1000 g/ha, evaluated after 13 days
Recorded percentage damage caused to the plant, five-point scale, ABUTH by entry

# count of solved cases: 5
CS(=O)(=O)c1cccc2c1c(=O)c(C(=O)SCCCc1ccccc1)nn2-c1ccc(OC(F)(F)F)cc1: 1 (1=10-20%)
CCCCCCCOC(=O)c1nn(-c2ccc(OC(F)(F)F)cc2)c2cccc(S(C)(=O)=O)c2c1=O: 0 (0=0%)
CCOC(=O)c1nn(-c2ccc(OC(F)(F)F)cc2)c2cc(CC(C)C)cc(S(C)(=O)=O)c2c1=O: 1 (1=10-20%)
CCOC(=O)c1nn(-c2ccc(OC(F)(F)F)cc2)c2cc(F)cc(S(C)(=O)=O)c2c1=O: 1 (1=10-20%)
CCOC(=O)c1nn(-c2ccc(OC(F)(F)F)cc2)c2cc(Br)cc(S(C)(=O)=O)c2c1=O: 0 (0=0%)

Prompt: What does the record list as percentage damage caused to the plant, five-point scale, ABUTH for `CS(=O)(=O)c1cccc2c1c(=O)c(C(=O)OCCCc1ccccc1)nn2-c1ccc(OC(F)(F)F)cc1` ?
Completion: 0 (0=0%)

Prompt: GET /values?readout=percentage damage caused to the plant, five-point scale, ABUTH&item= `CC(C)(C)CCOC(=O)c1nn(-c2ccc(OC(F)(F)F)cc2)c2cccc(S(C)(=O)=O)c2c1=O`
Completion: 1 (1=10-20%)

Prompt: # percentage damage caused to the plant, five-point scale, ABUTH lookup, item CCOC(=O)c1nn(-c2ccc(OC(F)(F)F)cc2)c2cccc([S+]([O-])CC)c2c1=O (stereo not drawn)
Completion: 0 (0=0%)

Prompt: What value of percentage damage caused to the plant, five-point scale, ABUTH has been reported for the following compound? `CCOC(=O)c1nn(-c2ccc(OC(F)(F)F)cc2)c2ccc(OC)c(S(C)(=O)=O)c2c1=O`
Completion: 0 (0=0%)

Prompt: Reported percentage damage caused to the plant, five-point scale, ABUTH for `CS(=O)(=O)c1cc(F)cc2c1c(=O)c(C(=O)O)nn2-c1ccc(OC(F)(F)F)cc1` : what is it?
Completion: 0 (0=0%)

Prompt: Fill blank: measured percentage damage caused to the plant, five-point scale, ABUTH of the compound `CCOC(=O)c1nn(-c2ccc(Cl)cc2F)c2cccc(S(C)(=O)=O)c2c1=O` is ____.
Completion: 1 (1=10-20%)

Prompt: // percentage damage caused to the plant, five-point scale, ABUTH lookup, key: CC(OC(=O)c1nn(-c2ccc(OC(F)(F)F)cc2)c2cccc(S(C)(=O)=O)c2c1=O)C1CC1 (stereo not drawn)
Completion: 0 (0=0%)

Prompt: Please report the recorded percentage damage caused to the plant, five-point scale, ABUTH for `CC(C)Cc1cc(S(C)(=O)=O)c2c(=O)c(C(=O)O)nn(-c3ccc(OC(F)(F)F)cc3)c2c1` .
Completion: 1 (1=10-20%)

Prompt: Record request: percentage damage caused to the plant, five-point scale, ABUTH value, item C=CC(C)OC(=O)c1nn(-c2ccc(OC(F)(F)F)cc2)c2cccc(S(C)(=O)=O)c2c1=O (stereo not drawn)
Completion: 0 (0=0%)

Prompt: What does the record list as percentage damage caused to the plant, five-point scale, ABUTH for `CCOC(=O)c1nn(-c2ccc(OC(F)(F)F)cc2)c2cccc(S(=O)(=O)C3CC3)c2c1=O` ?
Completion: 0 (0=0%)

* * *

# Tested on: Amaranthus retoflexus (AMARE)
# assay: Post-emergence herbicidal test
# Format: in vivo
# conditionInfo: 1000 g/ha unless otherwise stated, evaluated after 13 days
Recorded percentage damage caused to the plant, AMARE (five-point scale) for the following molecules

COCCCOC(=O)c1nn(-c2ccc(OC(F)(F)F)cc2)c2cccc(S(C)(=O)=O)c2c1=O: 0 (0=0%)
COc1ccc2c(c1S(C)(=O)=O)c(=O)c(C(=O)O)nn2-c1ccc(OC(F)(F)F)cc1: 1 (1=10-20%)
CS(=O)(=O)c1cccc2c1c(=O)c(C(=O)OCCC#N)nn2-c1ccc(OC(F)(F)F)cc1: 0 (0=0%)
CC(C)OC(=O)c1nn(-c2ccc(OC(F)(F)F)cc2)c2cccc(S(C)(=O)=O)c2c1=O: 1 (1=10-20%)
CCOC(=O)c1nn(-c2ccc(OC(F)(F)F)cc2)c2cccc(S(=O)(=O)CC)c2c1=O: 1 (1=10-20%)

Prompt: Given the molecule `COC(=O)COC(=O)c1nn(-c2ccc(OC(F)(F)F)cc2)c2cccc(S(C)(=O)=O)c2c1=O` , what is its reported percentage damage caused to the plant, AMARE (five-point scale)?
Completion: 1 (1=10-20%)

Prompt: Bench note: what percentage damage caused to the plant, AMARE (five-point scale) did CSc1cccc2c1c(=O)c(C(=O)O)nn2-c1ccc(OC(F)(F)F)cc1 [Compound P1] show?
Completion: 0 (0=0%)

Prompt: Tell me the measured percentage damage caused to the plant, AMARE (five-point scale) of CCOC(=O)c1nn(-c2ccc(OC(F)(F)F)cc2)c2cccc([S+]([O-])CC(F)(F)F)c2c1=O (stereo not drawn) , please.
Completion: 1 (1=10-20%)

Prompt: I'd like to know its percentage damage caused to the plant, AMARE (five-point scale). The molecule in question is `CCCCCCOC(=O)c1nn(-c2ccc(OC(F)(F)F)cc2)c2cccc(S(C)(=O)=O)c2c1=O`
Completion: 1 (1=10-20%)

Prompt: Tell me the measured percentage damage caused to the plant, AMARE (five-point scale) of `CCS(=O)(=O)c1cccc2c1c(=O)c(C(=O)O)nn2-c1ccc(OC(F)(F)F)cc1` , please.
Completion: 0 (0=0%)

* * *

# Test system: Zea mays (ZEAMX)
# assay: Pre-emergence herbicidal test
# Type: in vivo
# conditionInfo: 1000 g/ha, evaluated after 13 days
measure: percentage damage caused to the plant, five-point scale, ZEAMX

CN(C)CCOC(=O)c1nn(-c2ccc(OC(F)(F)F)cc2)c2cccc(S(C)(=O)=O)c2c1=O: 0 (0=0%)
CS(=O)(=O)c1cccc2c1c(=O)c(C(=O)OCCC1CCCCC1)nn2-c1ccc(OC(F)(F)F)cc1: 1 (1=10-20%)
CCCCCCCCSC(=O)c1nn(-c2ccc(OC(F)(F)F)cc2)c2cccc(S(C)(=O)=O)c2c1=O: 0 (0=0%)
CCOC(=O)c1nn(-c2ccc(OC(F)(F)F)cc2)c2ccc(Br)c(S(C)(=O)=O)c2c1=O: 0 (0=0%)
CCOC(=O)c1nn(-c2ccc(OC(F)(F)F)cc2)c2cccc(S(=O)(=O)CC)c2c1=O: 0 (0=0%)
CCOC(=O)c1nn(-c2ccc(OC(F)(F)F)cc2)c2cccc([S+]([O-])C3CC3)c2c1=O (stereo not drawn): 0 (0=0%)
COC(=O)c1nn(-c2ccc(OC(F)(F)F)cc2)c2cc(OC)cc(SC)c2c1=O: 0 (0=0%)
CS(=O)(=O)c1cccc2c1c(=O)c(C(=O)SCCCc1ccccc1)nn2-c1ccc(OC(F)(F)F)cc1: 0 (0=0%)
COc1ccc2c(c1S(C)(=O)=O)c(=O)c(C(=O)O)nn2-c1ccc(OC(F)(F)F)cc1: 1 (1=10-20%)
CCOC(=O)c1nn(-c2ccc(OC(F)(F)F)cc2)c2cccc([S+](C)[O-])c2c1=O (stereo not drawn): 0 (0=0%)

Prompt: Fill in: percentage damage caused to the plant, five-point scale, ZEAMX of `C#CCCCOC(=O)c1nn(-c2ccc(OC(F)(F)F)cc2)c2cccc(S(C)(=O)=O)c2c1=O` is ___
Completion: 0 (0=0%)

Prompt: Report percentage damage caused to the plant, five-point scale, ZEAMX for `CCOC(=O)c1nn(-c2ccc(OC(F)(F)F)cc2)c2ccc(C#N)c(S(C)(=O)=O)c2c1=O` please.
Completion: 0 (0=0%)

Prompt: Consider the molecule `CC(C)CCSC(=O)c1nn(-c2ccc(OC(F)(F)F)cc2)c2cccc(S(C)(=O)=O)c2c1=O` and give its measured percentage damage caused to the plant, five-point scale, ZEAMX.
Completion: 0 (0=0%)

Prompt: Report percentage damage caused to the plant, five-point scale, ZEAMX for `COC(C)(C)CCOC(=O)c1nn(-c2ccc(OC(F)(F)F)cc2)c2cccc(S(C)(=O)=O)c2c1=O` please.
Completion: 0 (0=0%)
